# test.target: HIV-1 protease M4 (I50V, A71V) (Human immunodeficiency virus type 1 group M subtype B, UniProt P03369, A561V/I540V)
# assay.procedure: FRET enzyme inhibition assay, M4 variant
measurement.name: Ki (nM)
Give the number; nM is assumed, so skip it.

// lookup Ki for CC[C@H](C)CN(C[C@@H](O)[C@H](Cc1ccccc1)NC(=O)[C@@H](NC(C)=O)[C@@H](C)CC)S(=O)(=O)c1ccc2ncsc2c1
0.092

Where do these numbers come from? They come from paper PMC3833293.
